- test: qHTS of pediatric cancer cell lines to identify multiple opportunities for drug repurposing: Primary screen for SK-N-SH cells (AID 1347098); further: nearly all actives have a fitted effect of over 65% in size; further: potency means the concentration at half of the fitted maximal effect
- condition description: SK-N-SH viability, CellTiter-Glo luminescence, 48 h; series mostly up to 57 µM
Inconclusive results are not listed. Calls of active or inactive are those of the source. The call rests on the fitted dose curve; in most records, active means well fitted cell-killing curve with a large enough effect; inconclusive means small, poorly fitted or top-dose-only effect; inactive means no such curve, though single readings can be large or run the other way.
measured quantity: Potency

{"columns": ["compound", "result"],
 "data": [
  ["Nc1nc(N)c2nc(-c3cccc(O)c3)c(-c3cccc(O)c3)nc2n1", "19.2 µM (active)"],
  ["O=C(CN1C(=O)C2(CCCC2)NC[C@H]1c1cc(F)cc(F)c1)Nc1ccc2c(c1)C[C@@]1(C2)C(=O)Nc2ncccc21", "inactive"],
  ["O=C(NNC(=O)c1ccc(CNS(=O)(=O)c2ccc(F)c(Cl)c2)cc1)c1ccccc1", "inactive"],
  ["C=CC1=C(C(=O)O)N2C(=O)[C@@H](NC(=O)C(=NO)c3csc(N)n3)[C@H]2SC1", "inactive"],
  ["CC(=O)[C@]1(O)Cc2c(O)c3c(c(O)c2[C@@H](O[C@H]2C[C@H](N)[C@@H](O)[C@H](C)O2)C1)C(=O)c1ccccc1C3=O", "0.192 µM (active)"],
  ["CCCCCCCN(CC)CCCC(O)c1ccc(NS(C)(=O)=O)cc1 (centres undefined)", "inactive"],
  ["O=C(O)C[C@H](O)C[C@H](O)C=Cc1c(C2CC2)nc2ccccc2c1-c1ccc(F)cc1", "4.82 µM (active)"],
  ["CCC(C(=O)O)C1CCC(C)C(C(C)C(O)C(C)C(=O)C(CC)C2OC3(C=CC(O)[C@@]4(CC[C@](C)(C5CC[C@@](O)(CC)C(C)O5)O4)O3)C(C)CC2C)O1 (some centres undefined)", "12.1 µM (active)"],
  ["CCOC(=O)C=C[C@H](C[C@@H]1CCNC1=O)NC(=O)[C@@H](CC(=O)[C@@H](NC(=O)c1cc(C)on1)C(C)C)Cc1ccc(F)cc1", "inactive"]
]}

Taken from PubChem BioAssay (NCATS).
